Molecular target: Beta-secretase 1 (Homo sapiens, UniProt P56817)
Sequence (P56817 whole entry): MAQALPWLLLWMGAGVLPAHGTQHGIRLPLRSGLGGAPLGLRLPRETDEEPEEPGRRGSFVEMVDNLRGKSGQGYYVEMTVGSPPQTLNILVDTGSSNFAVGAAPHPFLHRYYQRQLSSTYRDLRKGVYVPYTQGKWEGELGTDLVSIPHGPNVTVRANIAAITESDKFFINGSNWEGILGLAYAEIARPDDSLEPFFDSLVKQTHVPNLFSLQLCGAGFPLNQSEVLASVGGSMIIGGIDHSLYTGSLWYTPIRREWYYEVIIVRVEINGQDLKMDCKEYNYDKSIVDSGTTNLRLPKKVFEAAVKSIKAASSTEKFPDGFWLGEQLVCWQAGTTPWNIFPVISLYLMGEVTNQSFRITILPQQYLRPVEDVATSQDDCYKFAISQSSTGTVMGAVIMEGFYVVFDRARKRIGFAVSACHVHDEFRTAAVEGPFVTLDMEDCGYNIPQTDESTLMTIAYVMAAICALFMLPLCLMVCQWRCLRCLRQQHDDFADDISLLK
Recorded endpoint: pIC50
pIC50 is defined as minus the log10 of a concentration measured in mol/L.

CN1C(=N)NC(c2cncnc2)(c2cccc(-c3cccc(Cl)c3)c2)C1=O (stereo not given); 4.68
CN1C(=N)NC(c2cccc(-c3cncc(F)c3)c2)(C2CC2)C1=O (stereo not given); 6.10
Cc1cncc(-c2cccc(C3(C4CC4)NC(=N)N(C)C3=O)c2)c1 (stereo not given); 6.19
COc1cncc(-c2cccc(C3(C4CC4)NC(=N)N(C)C3=O)c2)c1 (stereo not given); 6.41
CC#Cc1cncc(-c2cccc([C@@]3(C4CC4)NC(=N)N(C)C3=O)c2)c1; 7.09
CN1C(=N)NC(c2cccc(-c3cccnc3)c2)(C2CC2)C1=O (stereo not given); 6.06

Prompt: State pIC50 on Beta-secretase 1 (Homo sapiens, UniProt P56817). Entry: CCC1(c2cccc(-c3cccc(Cl)c3)c2)NC(=N)N(C)C1=O (stereo not given)
Completion: 5.28

Prompt: State pIC50 on Beta-secretase 1 (Homo sapiens, UniProt P56817). Entry: CN1C(=N)NC(c2cccc(-c3cccc(Cl)c3)c2)(C2CCCC2)C1=O (stereo not given)
Completion: 5.16

Prompt: State pIC50 on Beta-secretase 1 (Homo sapiens, UniProt P56817). Entry: CN1C(=N)NC(c2cccc(-c3cccc(Cl)c3)c2)(C2CC2)C1=O (stereo not given)
Completion: 5.72

Prompt: State pIC50 on Beta-secretase 1 (Homo sapiens, UniProt P56817). Entry: CN1C(=N)NC(c2cccc(-c3cncc(C#N)c3)c2)(C2CC2)C1=O (stereo not given)
Completion: 6.21
